Data provenance: ChEMBL document CHEMBL1961873

molecular target: Cytoplasmic tyrosine-protein kinase BMX (Homo sapiens) (UniProt P51813); conditions: at 1 µM;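 further: reported value is the mean percent inhibition of BMX, from the GSK PKIS kinase inhibitor screen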
Sequence (P51813 whole entry): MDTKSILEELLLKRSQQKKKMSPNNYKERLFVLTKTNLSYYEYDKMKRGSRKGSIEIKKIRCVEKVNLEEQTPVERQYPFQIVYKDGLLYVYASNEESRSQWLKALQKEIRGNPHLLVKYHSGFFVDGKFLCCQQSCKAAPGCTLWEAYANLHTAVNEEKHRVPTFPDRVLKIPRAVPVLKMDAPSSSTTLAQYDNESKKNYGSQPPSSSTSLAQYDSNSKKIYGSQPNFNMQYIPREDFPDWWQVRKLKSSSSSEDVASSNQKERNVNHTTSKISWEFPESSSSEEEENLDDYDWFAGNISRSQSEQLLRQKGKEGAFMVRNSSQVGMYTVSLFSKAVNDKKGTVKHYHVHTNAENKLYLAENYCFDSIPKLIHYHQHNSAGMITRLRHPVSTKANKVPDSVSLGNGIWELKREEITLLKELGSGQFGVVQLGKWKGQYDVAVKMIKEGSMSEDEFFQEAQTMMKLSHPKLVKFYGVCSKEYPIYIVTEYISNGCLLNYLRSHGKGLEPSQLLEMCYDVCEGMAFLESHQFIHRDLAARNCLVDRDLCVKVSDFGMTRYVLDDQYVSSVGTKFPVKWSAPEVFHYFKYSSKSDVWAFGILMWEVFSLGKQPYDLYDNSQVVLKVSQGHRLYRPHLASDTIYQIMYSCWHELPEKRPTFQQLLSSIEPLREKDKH
Please respond with reported inhibition for every item in the list.
Respond with the figure and its unit, in that order.

Determine its reported inhibition: `FC(F)(F)c1cccc(Nc2nccc(-c3cnn4nc(-c5ccccc5)ccc34)n2)c1`
0.63%

Determine its reported inhibition: `COc1cc2ncn(-c3cc(OCc4ccccc4C(F)(F)F)c(C(C)=O)s3)c2cc1OC`
2.58%

Determine its reported inhibition: `C#Cc1cccc(Nc2ncnc3ccc(OCCCCNCCS(C)(=O)=O)cc23)c1`
5.57%

Determine its reported inhibition: `CCc1nccc2c1nc(-c1nonc1N)n2CC`
2.51%

Determine its reported inhibition: `O=C(NCC1CC1)c1ccc(-c2cccc(C(=O)NC3CC3)c2)cc1`
3.29%

Determine its reported inhibition: `Fc1ccc(-c2ncn(C3CCNCC3)c2-c2ccnc(Oc3ccc4c(c3)OCO4)n2)cc1`
5.87%

Determine its reported inhibition: `COc1cc2ncn(-c3cc(OCCc4ccccc4)c(C(N)=O)s3)c2cc1OC`
3.43%

Determine its reported inhibition: `COc1cc(N2CCN(C(C)C)CC2)ccc1Nc1nc(Nc2ccc(F)cc2C(=O)NC[C@@H](O)CO)c2cc[nH]c2n1`
4.34%

Determine its reported inhibition: `COc1cc(Nc2ncc(-c3ccccc3)o2)cc(OC)c1OC`
8.49%

Determine its reported inhibition: `COc1ccc2cc(-c3c(-c4ccncc4)nc(-c4ccc(S(C)(=O)=O)cc4C)n3C)ccc2c1`
3.88%

---

target: Aurora kinase B (Homo sapiens); conditions: at 1 µM;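 further: reported percent inhibition is a mean value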
Please respond with reported inhibition for every item in the list.
Unit % implied. Number only.

Determine its reported inhibition: `COc1cc(Nc2ncc3c(C)nc(-c4cccc(C(F)(F)F)c4)n3n2)cc(OC)c1OC`
14.4

Determine its reported inhibition: `Fc1ccc(-c2ncn(C3CCNCC3)c2-c2ccnc(Oc3ccc(Oc4ccccc4)cc3)n2)cc1`
3.66

Determine its reported inhibition: `NC(=O)c1cc(-c2ccc(F)cc2)cc(-c2ccncc2)c1N`
3.54

Determine its reported inhibition: `COc1cccc(/C=N/Nc2ncnc3c2cnn3-c2cccc(OC)c2)c1`
5.96

Determine its reported inhibition: `Fc1ccc(-c2ncn(C3CCNCC3)c2-c2ccnc(Oc3ccc4c(c3)OCO4)n2)cc1`
7.86

Determine its reported inhibition: `O=C(Nc1n[nH]c2nc(-c3ccco3)ccc12)C1CC1`
8.39

Determine its reported inhibition: `Clc1ccc(CNc2nccc(-c3cnn4ncccc34)n2)cc1`
8.64

Determine its reported inhibition: `NC(=O)c1ccc(Oc2nccc(-c3c(-c4ccc(F)cc4)ncn3C3CCNCC3)n2)cc1`
3.74

Determine its reported inhibition: `COc1ccc2cc(-c3c(-c4ccncc4)nc(-c4ccc(S(C)(=O)=O)cc4C)n3C)ccc2c1`
16.2

Determine its reported inhibition: `CN(C)CCCNc1nccc(-c2c(-c3ccc(F)cc3)nn3cc(C(F)(F)F)ccc23)n1`
6.92

Determine its reported inhibition: Nc1nccc(-c2c(-c3ccc(F)cc3)ncn2C2CCC(O)CC2)n1 (stereo unspecified)
4.15

Determine its reported inhibition: `O=C1NC(=O)C(c2cccc(Cl)c2)=C1Nc1ccc(Cl)c(C(=O)O)c1`
8.32

Determine its reported inhibition: `c1ccc(-c2n[nH]cc2-c2ccnc(-c3ccc(OCCN4CCOCC4)cc3)c2)nc1`
11.9

Determine its reported inhibition: `NS(=O)(=O)c1ccc(N/N=C2\C(=O)Nc3ccc(-c4cnco4)cc32)cc1`
1.73

Determine its reported inhibition: `COc1ccc2ncn(-c3cc(O[C@H](C)c4ccccc4Cl)c(C(N)=O)s3)c2c1`
1.24

Determine its reported inhibition: `CCc1ccc(Oc2nccc(-c3c(-c4ccc(F)cc4)ncn3C3CCNCC3)n2)cc1`
2.75

Determine its reported inhibition: `COc1cccc(-n2cnc3c(N/N=C/c4ccncc4)ncnc32)c1`
7.54

Determine its reported inhibition: `CN(c1ccc(NC(=O)Nc2c(Cl)cccc2Cl)cc1)c1ccnc(Nc2cccc(CS(C)(=O)=O)c2)n1`
84.2

Determine its reported inhibition: `COc1ccc(-c2ccc3c(NC(=O)C4CC4)n[nH]c3n2)cc1`
5.77

Determine its reported inhibition: `CCS(=O)(=O)c1ccc(OC)c(Nc2ncc(-c3ccccc3Cl)o2)c1`
5.12

Determine its reported inhibition: `Cc1ccc(NC(=O)c2ccoc2)cc1-c1ccc(C(=O)NCC2CC2)cc1`
4.85

---

target: cGMP-dependent protein kinase 1 (Homo sapiens) (UniProt Q13976); conditions: at 1 µM;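 further: listed percent inhibition of PRKG1 is a mean value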
Sequence (Q13976 whole entry): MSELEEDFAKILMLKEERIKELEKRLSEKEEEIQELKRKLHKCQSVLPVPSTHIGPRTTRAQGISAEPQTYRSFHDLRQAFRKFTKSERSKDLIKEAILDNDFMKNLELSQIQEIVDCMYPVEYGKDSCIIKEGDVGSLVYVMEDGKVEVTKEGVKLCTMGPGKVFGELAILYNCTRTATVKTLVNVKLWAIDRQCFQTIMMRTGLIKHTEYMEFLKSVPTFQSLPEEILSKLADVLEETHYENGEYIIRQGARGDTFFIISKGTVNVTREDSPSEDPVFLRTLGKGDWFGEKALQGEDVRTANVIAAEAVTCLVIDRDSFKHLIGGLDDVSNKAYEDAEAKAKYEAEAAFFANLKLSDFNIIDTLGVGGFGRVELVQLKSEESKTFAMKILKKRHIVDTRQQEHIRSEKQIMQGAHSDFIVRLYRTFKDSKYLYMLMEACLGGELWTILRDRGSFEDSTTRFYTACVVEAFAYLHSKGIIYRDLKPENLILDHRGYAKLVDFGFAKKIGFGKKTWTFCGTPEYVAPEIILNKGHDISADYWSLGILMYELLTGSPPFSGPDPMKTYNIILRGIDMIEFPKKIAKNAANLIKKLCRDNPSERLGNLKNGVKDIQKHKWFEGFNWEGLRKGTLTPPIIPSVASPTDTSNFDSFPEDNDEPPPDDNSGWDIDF
Please respond with reported inhibition for every item in the list.
Respond with the figure and its unit, in that order.

Jot down inhibition (cGMP-dependent protein kinase 1 (Homo sapiens) (UniProt Q13976)) of `COc1cc2ncn(-c3cc(OCc4ccccc4C(F)(F)F)c(C(C)=O)s3)c2cc1OC` .
0.72%

Jot down inhibition (cGMP-dependent protein kinase 1 (Homo sapiens) (UniProt Q13976)) of `C/C(Nc1ccc(S(N)(=O)=O)cc1)=C1/C(=O)Nc2ccccc21` .
3.66%

Jot down inhibition (cGMP-dependent protein kinase 1 (Homo sapiens) (UniProt Q13976)) of `N#Cc1ccc(Oc2nccc(-c3c(-c4ccc(F)cc4)ncn3C3CCNCC3)n2)cc1` .
2.48%

Jot down inhibition (cGMP-dependent protein kinase 1 (Homo sapiens) (UniProt Q13976)) of `CCN(CC)Cc1ccc(Nc2nccc(-c3cnn4ncccc34)n2)cc1` .
14.9%

Jot down inhibition (cGMP-dependent protein kinase 1 (Homo sapiens) (UniProt Q13976)) of `Clc1ccc(CNc2nccc(-c3cnn4ncccc34)n2)cc1` .
6.09%

Jot down inhibition (cGMP-dependent protein kinase 1 (Homo sapiens) (UniProt Q13976)) of `Cc1ccc(C(=O)NC2CCC2)cc1-c1ccc(C(=O)NCC2CC2)cc1` .
3.84%

Jot down inhibition (cGMP-dependent protein kinase 1 (Homo sapiens) (UniProt Q13976)) of `NC(=O)c1cc(-c2ccc(F)cc2)cc(-c2ccncc2)c1N` .
5.83%

Jot down inhibition (cGMP-dependent protein kinase 1 (Homo sapiens) (UniProt Q13976)) of `COc1cc(Nc2ncc3c(C)nc(-c4cccc(C(F)(F)F)c4)n3n2)cc(OC)c1OC` .
5.81%

Jot down inhibition (cGMP-dependent protein kinase 1 (Homo sapiens) (UniProt Q13976)) of `c1ccc(-c2n[nH]cc2-c2ccnc(-c3ccc(OCCN4CCOCC4)cc3)c2)nc1` .
4.78%

Jot down inhibition (cGMP-dependent protein kinase 1 (Homo sapiens) (UniProt Q13976)) of `COc1cc(Nc2ncc3c(C)nc(-c4cccc(Oc5ccccc5)c4)n3n2)cc(OC)c1OC` .
2.3%

Jot down inhibition (cGMP-dependent protein kinase 1 (Homo sapiens) (UniProt Q13976)) of `COc1cc(N2CCN(C(C)C)CC2)ccc1Nc1nc(Nc2ccc(F)cc2C(=O)NC[C@@H](O)CO)c2cc[nH]c2n1` .
35.1%

Jot down inhibition (cGMP-dependent protein kinase 1 (Homo sapiens) (UniProt Q13976)) of `Cc1ccc(NC(=O)c2ccoc2)cc1-c1ccc(C(=O)NCC2CC2)cc1` .
1.09%

Jot down inhibition (cGMP-dependent protein kinase 1 (Homo sapiens) (UniProt Q13976)) of `CN1CCN(CCCNc2nc3ccc(Oc4ccc(NC(=O)Nc5cc(C(F)(F)F)ccc5F)cc4)cc3[nH]2)CC1` .
3.23%

Jot down inhibition (cGMP-dependent protein kinase 1 (Homo sapiens) (UniProt Q13976)) of `CS(=O)(=O)CCNCc1ccc(-c2ccc3ncnc(Nc4ccc(OCc5ccccc5)c(Br)c4)c3c2)o1` .
0.89%

Jot down inhibition (cGMP-dependent protein kinase 1 (Homo sapiens) (UniProt Q13976)) of `COc1cc2ncn(-c3cc(OCc4cccs4)c(C(N)=O)s3)c2cc1OC` .
7.44%

Jot down inhibition (cGMP-dependent protein kinase 1 (Homo sapiens) (UniProt Q13976)) of `CCc1cccc(CC)c1/C=C/c1cncc(C(=O)NC)c1` .
2.71%

Jot down inhibition (cGMP-dependent protein kinase 1 (Homo sapiens) (UniProt Q13976)) of `C[C@@H](Oc1cc(-n2cnc3ccc(OC4CCN(C)CC4)cc32)sc1C(N)=O)c1ccccc1Cl` .
4.08%

---

biological target: Tyrosine-protein kinase Blk (Homo sapiens) (UniProt P51451); conditions: at 0.1 µM;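 further: reported value is the mean percent inhibition of BLK kinase activity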
Sequence (P51451 2-505 limits assumed): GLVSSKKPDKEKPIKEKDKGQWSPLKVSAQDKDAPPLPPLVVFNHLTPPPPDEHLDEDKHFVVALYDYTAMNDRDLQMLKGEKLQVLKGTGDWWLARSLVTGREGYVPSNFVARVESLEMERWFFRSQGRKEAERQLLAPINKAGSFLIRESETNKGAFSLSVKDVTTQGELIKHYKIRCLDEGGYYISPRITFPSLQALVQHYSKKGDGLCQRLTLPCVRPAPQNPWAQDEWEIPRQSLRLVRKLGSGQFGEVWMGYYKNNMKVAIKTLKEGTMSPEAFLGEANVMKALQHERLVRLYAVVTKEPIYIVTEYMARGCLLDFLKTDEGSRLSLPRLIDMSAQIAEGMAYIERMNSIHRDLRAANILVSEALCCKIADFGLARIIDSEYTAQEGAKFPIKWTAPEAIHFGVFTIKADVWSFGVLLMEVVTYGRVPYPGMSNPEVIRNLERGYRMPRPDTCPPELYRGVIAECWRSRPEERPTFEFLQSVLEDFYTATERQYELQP
Please respond with reported inhibition for every item in the list.
Unit % implied. Number only.

Determine its reported inhibition: `Fc1ccc(-c2ncn(C3CCNCC3)c2-c2ccnc(Oc3ccc4c(c3)OCO4)n2)cc1`
4.26

Determine its reported inhibition: `COc1cc(Nc2ncc(-c3ccccc3)o2)cc(OC)c1OC`
4.17

Determine its reported inhibition: `Cc1ccc(NC(=O)c2ccoc2)cc1-c1ccc(C(=O)NCC2CC2)cc1`
1.47

Determine its reported inhibition: `C[C@@H](Oc1cc(-n2cnc3ccc(OCC4CCN(C)CC4)cc32)sc1C(N)=O)c1ccccc1Cl`
2.92

Determine its reported inhibition: `CN(C)c1ccc2c(c1)/C(=C/Nc1ccc(S(N)(=O)=O)cc1)C(=O)N2`
2.29

Determine its reported inhibition: `CNC(=O)c1cncc(/C=C/c2c(C)cccc2C)c1`
-1.68

Determine its reported inhibition: `O=C1Nc2ccccc2/C1=C/Nc1ccc(-n2cncn2)cc1`
3.13

Determine its reported inhibition: `Cc1ccc(C(=O)NC(C)C)cc1-c1ccc(C(=O)NCC2CC2)cc1`
-1.25

Determine its reported inhibition: `COc1ccc2ncn(-c3cc(O[C@H](C)c4ccccc4Cl)c(C(N)=O)s3)c2c1`
-1.08

Determine its reported inhibition: `Fc1ccc(-c2ncn(C3CCNCC3)c2-c2ccnc(Oc3ccc(F)c(F)c3)n2)cc1`
-1.88
